# experimentalTarget: FGFR3 (UniProt P22607)
# Sequence (P22607 whole entry, looked up): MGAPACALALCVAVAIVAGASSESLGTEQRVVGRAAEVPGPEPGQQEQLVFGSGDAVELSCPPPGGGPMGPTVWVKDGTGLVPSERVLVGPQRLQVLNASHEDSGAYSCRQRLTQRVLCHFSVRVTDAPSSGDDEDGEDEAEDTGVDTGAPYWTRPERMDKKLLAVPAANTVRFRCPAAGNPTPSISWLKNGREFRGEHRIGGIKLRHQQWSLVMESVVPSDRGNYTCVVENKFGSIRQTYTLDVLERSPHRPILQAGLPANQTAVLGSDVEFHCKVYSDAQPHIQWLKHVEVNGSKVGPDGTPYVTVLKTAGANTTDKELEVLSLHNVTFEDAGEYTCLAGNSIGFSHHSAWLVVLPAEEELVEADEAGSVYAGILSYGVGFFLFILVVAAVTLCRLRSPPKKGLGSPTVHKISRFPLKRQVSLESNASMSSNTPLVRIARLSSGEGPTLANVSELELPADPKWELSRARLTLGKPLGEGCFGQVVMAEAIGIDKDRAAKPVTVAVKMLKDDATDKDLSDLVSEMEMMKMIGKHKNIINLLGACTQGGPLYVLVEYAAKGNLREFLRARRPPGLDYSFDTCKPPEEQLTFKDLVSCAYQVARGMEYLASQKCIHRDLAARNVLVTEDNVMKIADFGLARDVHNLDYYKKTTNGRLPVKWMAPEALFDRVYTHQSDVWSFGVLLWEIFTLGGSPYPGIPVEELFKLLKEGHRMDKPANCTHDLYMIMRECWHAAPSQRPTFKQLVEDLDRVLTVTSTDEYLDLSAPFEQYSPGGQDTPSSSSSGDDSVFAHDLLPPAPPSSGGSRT
# measurementNotes: phosphorylation enrichment, bacterial display (enrichment ratio); higher = better substrate or ligand; peptides without Tyr show the background;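 also: 11-residue human phosphosite peptides and single-mutation variants displayed on the E. coli surface, counted by deep sequencing, each peptide's frequency after selection divided by its frequency in the unselected input library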;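 also: frequency after pTyr selection over input frequency; kinase dosed for 20-30% of maximal phosphorylation in three min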
outcomeMeasure: phosphorylation enrichment
Answer using only a numeral; do not append any unit.

>>> recordednumber("QRCYVYYYSYL [PTEN_Y176_R173C]")
2.56
>>> recordednumber("KSEMSYIDGEK [SORBS1_Y485]")
0.592
>>> recordednumber("LEKISYVFMKR [SSX7_Y48_YF]")
1.42
>>> recordednumber("LRRFIYRPPDR [OTOF_Y1231]")
0.656

Looking up AVLSLYASGST [ACTG2_Y144_R148S] , I found its phosphorylation enrichment recorded as 0.723

Looking up MKGDFYCFLAE [YWHAG_Y131_R132C_YF] , I found its phosphorylation enrichment recorded as 1.5

Looking up AGHEEYSAMRD [KRAS_Y64_Q61H] , I found its phosphorylation enrichment recorded as 0.588

Looking up DFPIGYPSFLA [TBCK_Y153_YF] , I found its phosphorylation enrichment recorded as 0.631

Looking up PDGHEYIYVDP [PDGFRA_Y572] , I found its phosphorylation enrichment recorded as 7.36

Looking up PTTMTYFPHFD [HBA1_Y43_K41M] , I found its phosphorylation enrichment recorded as 2.32

Looking up HVLEEYKPKQG [SAXO2_Y37_P34L] , I found its phosphorylation enrichment recorded as 1.39

Looking up RGKEPYTKKAL [TTC21B_Y160] , I found its phosphorylation enrichment recorded as 0.522

Looking up SVGGLYRDMGA [CBX8_Y321_G317V] , I found its phosphorylation enrichment recorded as 0.561

Looking up FGAHNYHPLPV [OAT_Y55_YF] , I found its phosphorylation enrichment recorded as 3.33

Looking up YTGDIYSSSNL [LZTR1_Y141_N143S] , I found its phosphorylation enrichment recorded as 0.626
